B1: Membrane-associated guanylate kinase, WW and PDZ domain-containing protein 2, residues 601 to 682; numbered along this chain, Q86UL8 (parent)
chain: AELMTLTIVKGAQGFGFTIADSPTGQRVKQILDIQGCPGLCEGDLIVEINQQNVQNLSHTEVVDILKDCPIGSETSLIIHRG

# Variants of: B1
# ASSAY PROTOCOL: abundance fitness (aPCA) (normalised: wild type 0, dead -1); higher = more abundant; growth selection in yeast, the domain comes from the species named
# STATED CONDITIONS: Homo sapiens
ENDPOINT NAME: abundance fitness
Write the number on its own, no unit after it.

Ask: Name the recorded abundance fitness for D33C .
Reply: -0.092

Ask: Next record, please: N50F
Reply: -0.71

Ask: Next record, please: T18I
Reply: 0.008

Ask: Next record, please: I49S
Reply: -0.97

Ask: Next record, please: D64N
Reply: -0.067

Ask: Next record, please: T75L
Reply: -0.045

Ask: Next record, please: I19W
Reply: -0.203

Ask: Next record, please: E42P
Reply: 0.061

Ask: Next record, please: F17Y
Reply: -0.277

Ask: Next record, please: P23T
Reply: -0.058

Ask: Next record, please: L57H
Reply: -0.008

Ask: Next record, please: R81D
Reply: -0.538

Ask: Next record, please: D21W
Reply: -0.111
